These entries and their values trace back to patent US11103509B2.

# subject_of_test: human mPGES-1 (Homo sapiens)
# Construct: made in house
# Sequence (O14684 1-152): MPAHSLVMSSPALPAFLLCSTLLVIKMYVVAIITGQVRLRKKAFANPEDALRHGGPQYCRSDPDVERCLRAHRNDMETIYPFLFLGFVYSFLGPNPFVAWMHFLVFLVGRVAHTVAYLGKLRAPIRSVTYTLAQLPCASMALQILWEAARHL
# protocol_details: in vitro inhibitory activity against human mPGES-1 (PGE2 enzyme immunoassay)
# Format: biochemical
# applied_conditions: 10 μM, single-concentration screening; read-out: Inhibition (%) at 10 μM
assay_metric: inhibition at 10 µM (%)

Study these solved cases before continuing.
compound: COCC1=C(C(=O)OC(C)OC(=O)OC(C)C)N2C(=O)[C@@H](NC(=O)/C(=N\OC)c3csc(N)n3)[C@H]2SC1 (some centres unmarked)
assay_metric: inhibition at 10 µM
obs_value: 47
//
compound: Cc1ccccc1C(=O)Nc1ccc(C(=O)N2CCCC(O)c3cc(Cl)ccc32)c(C)c1 (centres unmarked)
assay_metric: inhibition at 10 µM
obs_value: 52
//
compound: CCOC(=O)[C@H](CCc1ccccc1)N[C@@H](C)C(=O)N1[C@H](C(=O)O)C[C@H]2CCCC[C@@H]21
assay_metric: inhibition at 10 µM
obs_value: 54
//
compound: COc1cc2nc(N(C)CCCNC(=O)C3CCCO3)nc(N)c2cc1OC (centres unmarked)
assay_metric: inhibition at 10 µM
obs_value: 22
//
compound: C[C@H]1[C@H](NC(=O)/C(=N\OC(C)(C)C(=O)O)c2csc(N)n2)C(=O)N1S(=O)(=O)O
assay_metric: inhibition at 10 µM
obs_value: 53

a = CCCCC[C@H](O)/C=C/[C@H]1[C@H](O)CC(=O)[C@@H]1CCCCCCC(=O)O
b = CCCCC[C@H](O)/C=C/[C@H]1[C@H](O)CC(=O)[C@@H]1C/C=C\CCCC(=O)O
c = COc1cc2nc(N3CCN(C(=O)C4COc5ccccc5O4)CC3)nc(N)c2cc1OC (centres unmarked)
Q: Please list these in order of increasing inhibition at 10 µM. Thank you! Give the order by naming the labels one after another as requested.
Ans: b, a, c
